Ref: PubChem BioAssay AID1159580

# assay.overview: chemical genetic growth profiling, strain panel (AID 1159580);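 note: tested at 20 µM; growth read once vehicle control cultures reached saturation at 30 °C; 1 = growth at the plate median or of vehicle wells; lower values mean less growth of the strain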
# condition.context: S. cerevisiae deletion strains, growth OD, locus YOR316C, strain cot1, stronger effect = lower value
In all, about 5,500 compounds went through this assay and about 2,000 (36%) were called active. Inconclusive results (about 18%) are left out. Some of the results follow.
endpoint.name: normalized growth

Field: example entries. Status: answers known.
- compound: "O=c1c(O)cc([C@H]2Oc3cc(O)cc(O)c3C[C@H]2O)cc2c([C@H]3Oc4cc(O)cc(O)c4C[C@H]3O)cc(O)c(O)c12"
  recorded.measurement: "1.01 (inactive)"
- compound: "O=C(CCCN1CCC2(CC1)C(=O)NCN2c1ccccc1)c1ccc(F)cc1"
  recorded.measurement: "0.986 (inactive)"
- compound: "CSc1nc(NC(C)C)nc(NC(C)C)n1"
  recorded.measurement: "1.01 (inactive)"
- compound: "CC(C)Nc1nc(Cl)nc(NC(C)C)n1"
  recorded.measurement: "1.01 (inactive)"
- compound: "O=C(O)CN(CCN(CC(=O)O)CC(=O)O)CC(=O)O"
  recorded.measurement: "0.979 (inactive)"

Attention now shifts to the item below.
normalized growth lookup needed for COc1nc(NC(C)C)nc(NC(C)C)n1 , thanks.
1.02 (inactive)
